# TESTED_TARGET: human PKCθ full length enzyme (Homo sapiens, UniProt Q04759)
# Construct: human PKCθ full length enzyme (Panvera Cat# P2996); purchased Panvera P2996
# Sequence (Q04759 whole entry): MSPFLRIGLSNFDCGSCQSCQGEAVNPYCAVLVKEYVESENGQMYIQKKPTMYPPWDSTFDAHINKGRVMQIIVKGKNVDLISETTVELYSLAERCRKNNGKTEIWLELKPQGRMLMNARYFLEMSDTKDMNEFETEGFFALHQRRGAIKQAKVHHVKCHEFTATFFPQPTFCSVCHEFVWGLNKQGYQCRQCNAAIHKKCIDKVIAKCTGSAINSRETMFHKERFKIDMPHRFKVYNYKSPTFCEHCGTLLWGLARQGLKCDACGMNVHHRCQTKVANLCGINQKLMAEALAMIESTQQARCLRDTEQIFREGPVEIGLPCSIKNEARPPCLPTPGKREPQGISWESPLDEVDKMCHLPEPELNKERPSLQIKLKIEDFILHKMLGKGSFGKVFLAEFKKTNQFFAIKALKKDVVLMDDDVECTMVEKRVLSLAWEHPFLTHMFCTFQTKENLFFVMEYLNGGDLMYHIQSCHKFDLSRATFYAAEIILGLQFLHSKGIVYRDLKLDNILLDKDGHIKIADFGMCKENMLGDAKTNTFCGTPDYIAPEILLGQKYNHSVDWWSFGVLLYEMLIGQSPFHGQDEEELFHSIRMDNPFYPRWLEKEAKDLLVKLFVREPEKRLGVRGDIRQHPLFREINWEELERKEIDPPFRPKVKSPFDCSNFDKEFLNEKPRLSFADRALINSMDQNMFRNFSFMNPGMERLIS
# TEST_DESCRIPTION: PKCθ IMAP assay (fluorescence polarization)
# Assay type: biochemical
# REPORTED_CONDITIONS: human PKCθ full length enzyme, IMAP; average value; read-out: IC50 PKCθ IMAP
PROPERTY_NAME: IC50 (nM)
Give the quantity in nM, number only.

Which IC50 value belongs to Cc1c(Nc2c(C#N)cncc2-c2ccc3ccccc3c2)ccc2[nH]ccc12 [Compound 582] ?
92

Need IC50 of N#Cc1cncc(-c2cccc(Br)c2)c1Nc1ccc2[nH]ccc2c1 [Compound 113] , thanks.
50

Can you look up the measured IC50 of Cc1c(Nc2c(C#N)cncc2-c2ccc(OCCN3CCN(C)CC3)cc2)cc(Cl)c2[nH]ccc12 [Compound 535] for me?
38

Tell me the measured IC50 of Cc1c(Nc2c(C#N)cncc2-c2ccc([N+](=O)[O-])cc2)ccc2[nH]ccc12 [Compound 570] , please.
16

====

# TESTED_TARGET: human PKCθ full length enzyme (Homo sapiens, UniProt Q04759)
# Construct: human PKCθ full length enzyme (Panvera Cat# P2996); purchased Panvera P2996
# TEST_DESCRIPTION: PKCθ IMAP assay (fluorescence polarization)
# Format: biochemical
# REPORTED_CONDITIONS: human PKCθ full length enzyme, IMAP; average value; read-out: IC50 PKCθ IMAP
PROPERTY_NAME: pIC50
Keep it numeric: pIC50 is minus log10 of the concentration in mol/L.

Can you look up the measured pIC50 of COCCOc1cc(-c2cncc(C#N)c2Nc2ccc3[nH]ccc3c2)ccc1OC [Compound 154] for me?
6.49

Looking for the measured pIC50 of Cc1c(Nc2c(C#N)cncc2-c2ccc(NC(=O)N(C)C)cc2)ccc2[nH]ccc12 [Compound 568] , can you help?
7.25

# input molecule: Cc1c(Nc2c(C#N)cncc2-c2ccc(OCCN3CCN(c4ccccn4)CC3)cc2)ccc2[nH]ccc12 [Compound 430] ; wanted: its pIC50
7.77

Can you look up the measured pIC50 of COc1ccc(-c2cncc(C#N)c2NCC2CCNCC2)cc1OC [Compound 445] for me?
4.69

Param item = CNC(=O)c1ccc(-c2cncc(C#N)c2Nc2ccc3[nH]ccc3c2C)cc1 [Compound 580] ; retrieve measured pIC50.
7.80

Which pIC50 value belongs to Cc1c(Nc2c(C#N)cncc2-c2ccc(CNCc3ccccc3)o2)ccc2[nH]ccc12 [Compound 408] ?
7.96

Tell me the measured pIC50 of Cc1c(Nc2c(C#N)cncc2-c2ccc(O)cc2)ccc2[nH]ccc12 [Compound 374] , please.
7.70

Item N#Cc1cncc(-c2cccc(-c3ccc(C(=O)NCc4cccnc4)cc3)c2)c1Nc1ccc2[nH]ccc2c1 [Compound 213] has what recorded pIC50?
6.57

Request the reported pIC50 associated with CC(=O)Nc1ccccc1-c1cncc(C#N)c1Nc1ccc2[nH]ccc2c1C [Compound 577]
7.44

Which measured pIC50 value corresponds to Cc1c(Nc2c(C#N)cncc2-c2cc3cc(CN4CCCCC4)ccc3s2)ccc2[nH]ccc12 [Compound 228] ?
8.70

Reported pIC50, molecule CCN(CC)CCOc1cc(-c2cncc(C#N)c2Nc2ccc3[nH]ccc3c2)ccc1OC [Compound 179] : ____
6.39

Entry CN(C)c1cccc(-c2cncc(C#N)c2Nc2cccc3[nH]ccc23)c1 [Compound 254] has what pIC50?
7.10

Fill blank: measured pIC50 of the molecule Cc1c(Nc2c(C#N)cncc2-c2cn[nH]c2)ccc2[nH]ccc12 [Compound 584] is ____.
7.37

Could you tell me which pIC50 is on file for COc1ccc(-c2cncc(C#N)c2Nc2cccc3[nH]ccc23)cc1OCCN1CCOCC1 [Compound 299] ?
7.52

Entry CCOCCNCCOc1ccc(-c2cncc(C#N)c2Nc2ccc3[nH]ccc3c2C)cc1 [Compound 416] : reported pIC50 = ?
8.22

Query: pIC50; subject: COC(=O)Nc1ccc(-c2cncc(C#N)c2Nc2ccc3[nH]ccc3c2C)cc1 [Compound 526]
8.00

Entry Cc1c(Nc2c(C#N)cncc2-c2csc3ccccc23)ccc2[nH]ccc12 [Compound 585] has what pIC50?
7.06

====

# TESTED_TARGET: purified recombinant active kinase domain of full length PKC theta (amino acids 362-706) (Homo sapiens)
# Construct: active kinase domain of full length PKC theta (amino acids 362-706)
# Sequence (Q04759 362-706): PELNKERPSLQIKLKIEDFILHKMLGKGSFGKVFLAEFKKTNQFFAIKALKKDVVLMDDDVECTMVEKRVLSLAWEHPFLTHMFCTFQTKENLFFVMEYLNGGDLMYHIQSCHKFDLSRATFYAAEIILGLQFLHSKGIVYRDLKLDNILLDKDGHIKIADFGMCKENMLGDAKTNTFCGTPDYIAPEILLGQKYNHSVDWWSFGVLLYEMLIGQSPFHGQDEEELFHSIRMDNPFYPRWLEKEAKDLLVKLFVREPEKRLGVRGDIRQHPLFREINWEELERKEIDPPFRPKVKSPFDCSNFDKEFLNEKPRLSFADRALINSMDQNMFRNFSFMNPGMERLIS
# TEST_DESCRIPTION: Radioactive kinase assay for inhibition of the active kinase domain (KD) of PKCθ
# REPORTED_CONDITIONS: active kinase domain of PKC theta (amino acids 362-706), average value, read-out: IC50 PKCθKD
PROPERTY_NAME: IC50 (nM)
Number only, in nM; omit the unit.

Which IC50 reading was recorded for the compound COc1ccc(-c2cncc(C#N)c2Nc2cccc3c2CCCC3)cc1OC ?
2660

Which IC50 is listed for COc1ccc(-c2cncc(C#N)c2Nc2ccc3[nH]ccc3c2)cc1OC ?
140

Record request: IC50 value, item COc1ccc(-c2cncc(C#N)c2Nc2cccc3cnccc23)cc1OC
5680

What value of measured IC50 is listed for COc1ccc(-c2cncc(C#N)c2Nc2cccc3[nH]ccc23)cc1OC ?
150

Value lookup for IC50; key = COc1ccc(-c2cncc(C#N)c2Nc2cccc3nsnc23)cc1OC
960

// lookup IC50 for COc1ccc(-c2cncc(C#N)c2Nc2ccc3c(c2)OCCO3)cc1OC
11400

Reported IC50, compound COc1ccc(-c2cncc(C#N)c2Nc2cccc3ncccc23)cc1OC : ____
6560

# input compound: COc1ccc(-c2cncc(C#N)c2Nc2ccc3cc[nH]c3c2)cc1OC ; wanted: its IC50
1010

====

# TESTED_TARGET: human PKCθ full length enzyme (Homo sapiens)
# Construct: human PKCθ full length enzyme (Panvera Cat# P2996); purchased Panvera P2996
# TEST_DESCRIPTION: PKCθ IMAP assay (fluorescence polarization)
# Type: biochemical
# REPORTED_CONDITIONS: human PKCθ full length enzyme, IMAP; average value; read-out: IC50 PKCθ IMAP
Criterion: IC50 strictly less than 60 nM. Met: true (1). Not met: false (0).

Quick check: does Cc1c(Nc2c(C#N)cncc2-c2ccc(N3CCCCC3)nc2)ccc2[nH]ccc12 have IC50 under 60 nM?
false (0)

Determine if N#Cc1cncc(-c2ccccc2Br)c1Nc1ccc2[nH]ccc2c1 shows IC50 strictly lower than 60 nM.
false (0)

is_below(IC50, 60 nM) for Cc1c(Nc2c(C#N)cncc2-c2cccc3ncccc23)ccc2[nH]ccc12 ?
true (1)

Input CC(=O)Nc1cccc(-c2cncc(C#N)c2Nc2ccc3[nH]ccc3c2C)c1 ; condition: IC50 strictly below 60 nM. Does it hold?
false (0)

Report whether reported IC50 is lower than 60 nM (strictly) for Cc1c(Nc2c(C#N)cncc2-c2ccc(OCCCl)cc2)cc(Cl)c2[nH]ccc12
true (1)

Does COc1ccc(-c2cncc(C#N)c2Nc2cccc3[nH]ccc23)cc1OCCNCCc1cccnc1 have IC50 strictly under 60 nM?
true (1)

Please indicate whether the reported IC50 of CCN1CCN(CCOc2ccc(-c3cncc(C#N)c3Nc3ccc4[nH]ccc4c3C)cc2)CC1 is strictly below 60 nM.
true (1)

Lab log: compare recorded IC50 with 60 nM; is it strictly lower for Cc1c(Nc2c(C#N)cncc2-c2ccc(OCCN3CCN(c4ccncc4)CC3)cc2)ccc2[nH]ccc12 ?
true (1)

Identify whether the compound Cc1c(Nc2c(C#N)cncc2-c2ccsc2)ccc2[nH]ccc12 records IC50 below 60 nM.
true (1)

# TODO verify IC50 < 60 nM strictly for this compound: COc1ccc(-c2cncc(C#N)c2Nc2ccc3c(c2)CCC3)cc1OC
false (0)

Is the reported IC50 for CCN(CC)Cc1ccc2oc(-c3cncc(C#N)c3Nc3cc4cc[nH]c4cc3C)cc2c1 strictly below 60 nM?
true (1)

Threshold test, IC50 < 60 nM: N#Cc1cncc(-c2cc3cc(CNCc4ccncc4)ccc3s2)c1Nc1cccc2[nH]ccc12
true (1)

Hello, I'm reviewing records and need to know if IC50 of N#Cc1cncc(-c2ccncc2)c1Nc1ccc2[nH]ccc2c1 is below 60 nM. Could you check?
false (0)

Input N#Cc1cncc(-c2cccc(-c3ccc(Cl)cc3)c2)c1Nc1ccc2[nH]ccc2c1 ; condition: IC50 strictly below 60 nM. Does it hold?
false (0)

Does the reported IC50 of COc1ccc(-c2cncc(C#N)c2Nc2ccc3ccccc3c2)cc1OC stay below 60 nM?
false (0)

Could you please tell me whether IC50 recorded for Cc1c(Nc2c(C#N)cncc2-c2cncn2C)ccc2[nH]ccc12 is less than 60 nM?
false (0)

Below 60 nM on IC50? Entry Cc1c(Nc2c(C#N)cncc2-c2nccs2)ccc2[nH]ccc12
true (1)

Say whether its IC50 is strictly beneath 60 nM. Entry: COCCOc1cccc(-c2cncc(C#N)c2Nc2ccc3[nH]ccc3c2C)c1
true (1)

Please check: IC50 for N#Cc1cncc(-c2ccsc2)c1Nc1ccc2[nH]ccc2c1 , strictly under 60 nM or not?
false (0)

Is IC50 strictly under 60 nM for the entry Cc1c(Nc2c(C#N)cncc2-c2cc3cc(CN4CCCC4)ccc3o2)ccc2[nH]ccc12 ?
true (1)

Report whether reported IC50 is lower than 60 nM (strictly) for CC(=O)c1ccc(-c2cccc(-c3cncc(C#N)c3Nc3ccc4[nH]ccc4c3)c2)s1
false (0)

Lab note: confirm whether the reported IC50 for this compound is below 60 nM, equality not counting. compound: C#CCNCc1ccc2sc(-c3cncc(C#N)c3Nc3cccc4[nH]ccc34)cc2c1
true (1)

Please check: IC50 for Cc1c(Nc2c(C#N)cncc2-c2csc(C=O)c2)ccc2[nH]ccc12 , strictly under 60 nM or not?
true (1)

Could you please tell me whether IC50 recorded for Cc1c(Nc2c(C#N)cncc2-c2cc3cc(CN4CCC(N5CCCCC5)CC4)ccc3o2)ccc2[nH]ccc12 is less than 60 nM?
true (1)

Record Cc1c(Nc2c(C#N)cncc2-c2cnc(N(C)C)nc2)ccc2[nH]ccc12 : is its IC50 strictly below 60 nM?
false (0)

Given N#Cc1cncc(-c2cc3cc(CN4CCCCC4)ccc3s2)c1Nc1cccc2[nH]ccc12 , is recorded IC50 strictly lower than 60 nM?
true (1)

Quick check: IC50 of Cc1c(Nc2c(C#N)cncc2-c2ccc3occc3c2)ccc2[nH]ccc12 under 60 nM?
true (1)

Is 60 nM strictly greater than the compound's reported IC50? compound: COCCOc1ccc(-c2cncc(C#N)c2Nc2ccc3[nH]ccc3c2C)cc1OC
true (1)

Does Cc1c(Nc2c(C#N)cncc2-c2cc3cc(CN4CCC(CO)CC4)ccc3o2)ccc2[nH]ccc12 have IC50 strictly under 60 nM?
true (1)

Bench note: check whether COc1ccc(-c2cncc(C#N)c2Nc2ccc3[nH]ccc3c2C)cc1OCCN1CCN(C)CC1 shows IC50 below 60 nM
true (1)

Determine if COc1ccc(-c2cncc(C#N)c2Nc2ccc3[nH]ccc3c2)cc1-c1ccccc1Cl shows IC50 strictly lower than 60 nM.
false (0)

Check if IC50 falls below 60 nM for Cc1c(Nc2c(C#N)cncc2-c2ccc(OCCN(C)C)cc2)cc(Cl)c2[nH]ccc12 .
true (1)
